# Procedure details: Lipophilicity, log D at pH 7.4 by shake-flask method
# Format: physicochemical
# Reported conditions: buffer
Listed below: logD values for each entry.
Field format: numeric only.

>  <Substance smiles>
Cc1ncc(-c2c(C)c(CN[C@H]3CC[C@@H](F)C3)nn2-c2ncccc2Cl)cc1F

>  <Value observed>
1.8

$$$$
>  <Substance smiles>
Cc1c(CNC2CCCC2)nn(-c2ccc(Cl)cc2Cl)c1-c1cccnc1

>  <Value observed>
2.9

$$$$
>  <Substance smiles>
Cc1c(CNC2CCCC2)nn(-c2ncccc2Cl)c1-c1ccc(Cl)nc1

>  <Value observed>
2.1

$$$$
>  <Substance smiles>
Cc1cncc(-c2c(C)c(CNC3CCCC3)nn2-c2ncccc2Cl)c1

>  <Value observed>
1.6

$$$$
>  <Substance smiles>
Cc1ccc(-c2c(C)c(CN[C@H]3CC[C@@H](F)C3)nn2-c2ncccc2Cl)cn1

>  <Value observed>
1.3

$$$$

Note down logD recorded for `Cc1ccc(-c2c(C)c(CNC3CCCC3)nn2-c2ncccc2C)cn1`
1.2
